measured.on: murine CCR2 (Mus musculus, UniProt P51683)
Construct: host or cells: U2OS β-arrestin cell line
Sequence (P51683 whole entry): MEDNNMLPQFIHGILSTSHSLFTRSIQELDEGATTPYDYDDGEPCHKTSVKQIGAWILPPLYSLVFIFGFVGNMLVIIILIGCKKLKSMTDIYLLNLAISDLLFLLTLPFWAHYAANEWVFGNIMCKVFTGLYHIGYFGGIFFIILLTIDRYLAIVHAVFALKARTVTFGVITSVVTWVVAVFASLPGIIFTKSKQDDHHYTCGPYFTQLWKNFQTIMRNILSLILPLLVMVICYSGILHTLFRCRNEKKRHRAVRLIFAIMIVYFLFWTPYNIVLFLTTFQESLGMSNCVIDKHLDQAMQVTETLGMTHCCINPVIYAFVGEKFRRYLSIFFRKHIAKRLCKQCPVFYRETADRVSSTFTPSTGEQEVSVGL
test.description: Functional β-arrestin recruiting test with murine MCP-1 (B-2b)
Assay type: cell-based
settings: U2OS β-arrestin cell line transfected with murine CCR2; agonist murine MCP-1; in some cases means of several determinations
pIC50: −log10 of the molar value.
reported.metric: pIC50

Example cases with answers are listed next.
{"compound": "COc1cccc(-c2nc(C(F)(F)F)c(Oc3ccc(Cl)c(Cl)c3)c(=O)[nH]2)n1", "measured.on": "murine CCR2 (Mus musculus, UniProt P51683)", "pIC50": 6.12}
{"compound": "Cc1ccc(-c2nc(C(F)(F)F)c(Oc3ccc(Cl)c(C(F)(F)F)c3)c(=O)[nH]2)nc1C", "measured.on": "murine CCR2 (Mus musculus, UniProt P51683)", "pIC50": 6.01}

I = O=c1[nH]c(-c2ncccc2Br)nc(C(F)(F)F)c1Oc1ccc(Cl)c(Cl)c1
II = CN(C)c1ccc(-c2nc(C(F)(F)F)c(Oc3ccc(Cl)c(C(F)(F)F)c3)c(=O)[nH]2)nn1
Min pIC50? I | II Please indicate the selected item by its label.
II

P = COc1ccc2c(-c3nc(C(F)(F)F)c(Oc4ccc(Cl)c(Cl)c4)c(=O)[nH]3)noc2c1
Q = O=c1[nH]c(-c2n[nH]cc2Cl)nc(C(F)(F)F)c1Oc1ccc(Cl)c(Cl)c1
Min pIC50? P | Q Please indicate the selected item by its label.
P
